NF-kB SEAP reporter activity reference
Tested on: RAW-Dual
measurement_description: NF-kB SEAP reporter activity, fold change vs agonist alone; cytotoxicity flag (confluency mask): not cytotoxic; higher = enhanced NF-kB activity
test_settings: agonist: Pam3CSK4 (TLR2/1) 0.1 ug/mL
Whole data set: some 2,900 compounds, median “NF-kB SEAP reporter activity, fold change vs agonist alone” near 0.99, cut for the highest 2% near 2.6. Shown is part of a subset that was picked to be rich in the highest values.

CC1(Cn2ccnn2)C(C(=O)O)N2C(=O)CC2S1(=O)=O (stereo unspecified) (library stock concentration (final ~1000-fold dilution): 10 mM)    1.06

*Q* // returns reported NF-kB SEAP reporter activity for input CCc1ccc(NC(=O)Nc2ccccc2)cc1 (library stock concentration (final ~1000-fold dilution): 10 mM)
*A* 0.652

*Q* // returns reported NF-kB SEAP reporter activity for input CS(=O)(=O)O.O=C(OC1CC2CC3CC(C1)N2CC3=O)c1c[nH]c2ccccc12 (stereo unspecified) (library stock concentration (final ~1000-fold dilution): 10 mM)
*A* 0.497

*Q* // returns reported NF-kB SEAP reporter activity for input O=C(CCCCCCCC(=O)NCCO)NCCO (library stock concentration (final ~1000-fold dilution): 10 mM)
*A* 0.856

*Q* // returns reported NF-kB SEAP reporter activity for input C/C(=N\NC(=O)c1cccc(S(=O)(=O)N2CCOCC2)c1)c1cc(Cl)ccc1O (library stock concentration (final ~1000-fold dilution): 10 mM)
*A* 2.48

*Q* // returns reported NF-kB SEAP reporter activity for input COc1ccc(-c2ccc3c(N4CCOCC4)nc(N4CC(C)OC(C)C4)nc3n2)cc1CO (stereo unspecified) (library stock concentration (final ~1000-fold dilution): 10 mM)
*A* 0.707

---

NF-kB SEAP reporter activity reference
System: RAW-Dual
measurement_description: NF-kB SEAP reporter activity, fold change vs agonist alone; cytotoxicity flag (confluency mask): not cytotoxic; higher = enhanced NF-kB activity
test_settings: agonist: Pam2CSK4 (TLR2/6) 0.1 ug/mL
Over roughly 2,900 compounds, “NF-kB SEAP reporter activity, fold change vs agonist alone” has its median near 0.99; the highest 2% begin near 2.6. Many of the other results were omitted from the sample, so the highest values are more common in it than they were.
Note: the reply should be a number with no unit written.

O=C(/C=C/N1CC2CC1CN2c1ccccn1)c1ccccc1O (stereo unspecified) (library stock concentration (final ~1000-fold dilution): 10 mM)    1.02
N#Cc1cc(N2CCC(C(=O)N3N=CCC3c3cc(F)cc(F)c3)CC2)ncn1 (stereo unspecified) (library stock concentration (final ~1000-fold dilution): 10 mM)    0.796
COc1cc(C2CC(c3ccccc3)=NN2C(N)=S)cc(OC)c1OC (stereo unspecified) (library stock concentration (final ~1000-fold dilution): 10 mM)    0.997
COc1ccc(-c2ccc3c(N4CCOCC4)nc(N4CC(C)OC(C)C4)nc3n2)cc1CO (stereo unspecified) (library stock concentration (final ~1000-fold dilution): 10 mM)    0.365
O=C(O)c1ccc(Br)c(O)c1 (library stock concentration (final ~1000-fold dilution): 10 mM)    1.09

*Q* // returns reported NF-kB SEAP reporter activity for input Nc1nc(F)nc2c1ncn2C1OC(CO)C(O)C1O (stereo unspecified) (library stock concentration (final ~1000-fold dilution): 10 mM)
*A* 1.06
